assay: Gel test (vial inversion); assay type: physicochemical; settings: olive oil
quantity_kind: Gel test

COC(=O)[C@H](Cc1ccccc1)NC(=O)[C@@H]1C[C@H](C(=O)O)C[C@H](C(=O)N[C@@H](Cc2ccccc2)C(=O)OC)C1    gel
COC(=O)[C@H](Cc1ccccc1)NC(=O)[C@@H]1C[C@H](C(=O)N[C@@H](Cc2ccccc2)C(=O)OC)C[C@H](C(=O)OCc2ccccc2)C1    gel
O=C(N[C@@H](Cc1ccccc1)C(=O)NC1CCCCC1)[C@H]1C[C@@H](C(=O)OCc2ccccc2)C[C@@H](C(=O)OCc2ccccc2)C1    gel

###

assay: Gel test (vial inversion); format: physicochemical; conditions: 1 mg/mL in H2O
quantity_kind: Gel test

CSCC[C@H](NC(=O)[C@@H]1C[C@H](C(=O)NCCOCCO)C[C@H](C(=O)NCCOCCO)C1)C(=O)Nc1ccc2ccccc2c1 [Compound 4, CHex(AmMet-AmβNA)(AmEtOEtOH)2]    clear gel
O=C(NCCOCCO)[C@@H]1C[C@H](C(=O)NCCOCCO)C[C@H](C(=O)N[C@@H](Cc2ccccc2)C(=O)Nc2ccc3ccccc3c2)C1 [Compound 2, CHex(AmPhe-AmβNA)(AmEtOEtOH)2]    clear gel
O=C(NCCOCCO)[C@@H]1C[C@H](C(=O)NCCOCCO)C[C@H](C(=O)N[C@@H](Cc2ccc(O)cc2)C(=O)Nc2ccc3ccccc3c2)C1 [Compound 24, CHex(AmTyrAmβNA)(AmEtOEtOH)2]    clear gel
